Cited source for all entries: ChEMBL document CHEMBL3885861

Organism: Rattus norvegicus
Test: Open TG-GATES - Regimen: Single
Format: toxicity, organism-based, Sprague-Dawley
Parameters: regimen Single, gender Male, age 6 weeks
Settings: in vivo, po, 300 mg/kg, 6 h, tissue Plasma, route gavage, dose level Middle

>  <compound>
O=C(O)c1cn(C2CC2)c2cc(N3CCNCC3)c(F)cc2c1=O

>  <PL / mg/dL>
131.8

$$$$
>  <compound>
O=C(O)c1cc(/N=N/c2ccc(S(=O)(=O)Nc3ccccn3)cc2)ccc1O

>  <PL / mg/dL>
164.4

$$$$
>  <compound>
C[C@H](CS)C(=O)N1CCC[C@H]1C(=O)O

>  <PL / mg/dL>
133.6

$$$$
>  <compound>
CCc1cc(C(N)=S)ccn1 [ETHIONAMIDE]

>  <PL / mg/dL>
122.8

$$$$
>  <compound>
Clc1ccccc1CN1CCc2sccc2C1

>  <PL / mg/dL>
134

$$$$

###

Species: Rattus norvegicus
Test: Open TG-GATES - Regimen: Single
Format: toxicity, organism-based, Sprague-Dawley
Parameters: regimen Single, gender Male, age 6 weeks
Settings: in vivo, po, 0 mg/kg, 6 h, tissue Plasma, route gavage, dose level Control
Quick list: Ca per entry.

>  <molecule>
CC(=O)Oc1ccccc1C(=O)O [ASPIRIN]

>  <Ca [mg/dL]>
10.6

$$$$
>  <molecule>
CCc1cc(C(N)=S)ccn1 [ETHIONAMIDE]

>  <Ca [mg/dL]>
11

$$$$
>  <molecule>
NC(=O)N1c2ccccc2C=Cc2ccccc21 [CARBAMAZEPINE]

>  <Ca [mg/dL]>
10.5

$$$$
>  <molecule>
O=C(O)c1cc(/N=N/c2ccc(S(=O)(=O)Nc3ccccn3)cc2)ccc1O [SULFASALAZINE]

>  <Ca [mg/dL]>
10.6

$$$$
>  <molecule>
Cn1c(=O)c2[nH]cnc2n(C)c1=O.O [THEOPHYLLINE]

>  <Ca [mg/dL]>
10.4

$$$$
>  <molecule>
NC(=O)N/N=C/c1ccc([N+](=O)[O-])o1 [NITROFURAZONE]

>  <Ca [mg/dL]>
11

$$$$

###

Species: Rattus norvegicus
Assay: Open TG-GATES - Regimen: Single
Assay type: toxicity, organism-based, Sprague-Dawley
Set-up: regimen Single, gender Male, age 6 weeks
Conditions: in vivo, po, 100 mg/kg, 9 h, tissue Blood, route gavage, dose level Low
experimental.readout: Fbg

>  <compound>
C[C@H](CS)C(=O)N1CCC[C@H]1C(=O)O

>  <value.measured>
205.8 mg/dL

$$$$
>  <compound>
O=C(O)c1cn(C2CC2)c2cc(N3CCNCC3)c(F)cc2c1=O

>  <value.measured>
215 mg/dL

$$$$
>  <compound>
O=C(O)c1cc(/N=N/c2ccc(S(=O)(=O)Nc3ccccn3)cc2)ccc1O

>  <value.measured>
225.8 mg/dL

$$$$
>  <compound>
Clc1ccccc1CN1CCc2sccc2C1

>  <value.measured>
226.6 mg/dL

$$$$
>  <compound>
CCc1cc(C(N)=S)ccn1 [ETHIONAMIDE]

>  <value.measured>
210.2 mg/dL

$$$$

###

Organism: Rattus norvegicus
Experiment: Open TG-GATES - Regimen: Single
Type: toxicity, organism-based, Sprague-Dawley
Set-up: regimen Single, gender Male, age 6 weeks
Details: in vivo, po, 300 mg/kg, 3 h, tissue Plasma, route gavage, dose level Middle
Quick list: TC per entry.
experimental.readout: TC (mg/dL)

>  <compound>
O=C(O)c1cn(C2CC2)c2cc(N3CCNCC3)c(F)cc2c1=O

>  <value.units>
mg/dL

>  <value.measured>
84

$$$$
>  <compound>
O=C(O)c1cc(/N=N/c2ccc(S(=O)(=O)Nc3ccccn3)cc2)ccc1O

>  <value.units>
mg/dL

>  <value.measured>
71.2

$$$$
>  <compound>
CCc1cc(C(N)=S)ccn1 [ETHIONAMIDE]

>  <value.units>
mg/dL

>  <value.measured>
70.4

$$$$
>  <compound>
C[C@H](CS)C(=O)N1CCC[C@H]1C(=O)O

>  <value.units>
mg/dL

>  <value.measured>
70.8

$$$$
>  <compound>
Clc1ccccc1CN1CCc2sccc2C1

>  <value.units>
mg/dL

>  <value.measured>
72.6

$$$$
